- Target Under Test: Fibroblast growth factor 10 (Homo sapiens)
- Test Description: compounds binding fibroblast growth factor 10 – biochemical, small-molecule microarray, 635 nm fluorescence, primary screen (AID 1102)
- Assay Conditions: FGF10 binding, fluorescence 635 nm, higher = more signal
Measurement Name: composite z-score
No unit in the answer, only the number.

Find composite z-score (Fibroblast growth factor 10 (Homo sapiens)) for the entry COc1cccc(C)c1NC(=O)O[C@H]1[C@H](OC(=O)Nc2ccccc2-c2ccccc2)[C@H](OC(=O)Nc2ccccc2-c2ccccc2)[C@@H](OC)O[C@@H]1CO
1.18

###

- Target Under Test: Torsin-1A (Homo sapiens) (UniProt O14656)
- Sequence (O14656 whole entry, looked up): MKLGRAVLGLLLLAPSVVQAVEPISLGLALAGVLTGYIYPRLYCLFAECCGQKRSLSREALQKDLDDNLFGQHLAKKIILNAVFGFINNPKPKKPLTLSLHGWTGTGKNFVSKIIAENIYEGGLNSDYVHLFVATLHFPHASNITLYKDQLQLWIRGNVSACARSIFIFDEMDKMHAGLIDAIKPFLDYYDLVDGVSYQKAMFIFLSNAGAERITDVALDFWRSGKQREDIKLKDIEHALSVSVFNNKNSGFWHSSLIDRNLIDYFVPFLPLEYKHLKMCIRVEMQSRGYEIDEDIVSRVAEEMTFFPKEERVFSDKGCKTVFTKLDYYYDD
- Test Description: torsin A mutant lysate binding on microarrays – cell lysate, small-molecule microarray, COS7 lysate, 635/667 nm fluorescence, primary screen (AID 1150);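 further: score pools 667 nm emission and signal to noise measuring lysate protein binding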
- Assay Conditions: COS7 hTOR1A mutant lysate, 635 nm fluorescence, higher = more signal
Here, each record is paired with measured composite z-score data.
No unit in the answer, only the number.

Guide cases for composite z-score, answers given:
O=C(NCc1ccc(F)cc1)[C@H]1C[C@H]2C(=O)NCC(=O)N2[C@H]1c1ccc(O)cc1	1.82
CCCCC=C[C@@H](NC(=O)OCc1ccccc1Cl)c1ccccc1	0.665

Find composite z-score (Torsin-1A (Homo sapiens) (UniProt O14656)) for the entry C=CC[C@]1(C(=O)N2CCOCC2)COC(c2ccc(OCCCO)cc2)=N1
2.16

Find composite z-score (Torsin-1A (Homo sapiens) (UniProt O14656)) for the entry O=C(O)[C@@H]1C[C@@H]2C(=O)N3CCC[C@H]3C(=O)N2[C@@H]1c1ccc(O)cc1
0.643

Find composite z-score (Torsin-1A (Homo sapiens) (UniProt O14656)) for the entry COCCOC(=O)N1C(=O)[C@@]2(c3cc(C#CCC(C(=O)OC)C(=O)OC)ccc31)[C@H](c1ccc(OCCO)cc1)N1[C@H](c3ccccc3)[C@H](c3ccccc3)OC(=O)[C@H]1[C@@H]2C(=O)N1CCc2cc(OC)c(OC)cc2C1
0.769

Find composite z-score (Torsin-1A (Homo sapiens) (UniProt O14656)) for the entry C=CCN1C(=O)[C@]2(CCS(=O)(=O)c3ccccc3)N=C(c3ccc(OCCCO)cc3)O[C@@H]2c2ccccc21
0.573

###

Here, each record is paired with measured composite z-score data.
- Target Under Test: Neurogenic locus notch homolog protein 3 (Homo sapiens) (UniProt Q9UM47)
- Sequence (Q9UM47 whole entry, looked up): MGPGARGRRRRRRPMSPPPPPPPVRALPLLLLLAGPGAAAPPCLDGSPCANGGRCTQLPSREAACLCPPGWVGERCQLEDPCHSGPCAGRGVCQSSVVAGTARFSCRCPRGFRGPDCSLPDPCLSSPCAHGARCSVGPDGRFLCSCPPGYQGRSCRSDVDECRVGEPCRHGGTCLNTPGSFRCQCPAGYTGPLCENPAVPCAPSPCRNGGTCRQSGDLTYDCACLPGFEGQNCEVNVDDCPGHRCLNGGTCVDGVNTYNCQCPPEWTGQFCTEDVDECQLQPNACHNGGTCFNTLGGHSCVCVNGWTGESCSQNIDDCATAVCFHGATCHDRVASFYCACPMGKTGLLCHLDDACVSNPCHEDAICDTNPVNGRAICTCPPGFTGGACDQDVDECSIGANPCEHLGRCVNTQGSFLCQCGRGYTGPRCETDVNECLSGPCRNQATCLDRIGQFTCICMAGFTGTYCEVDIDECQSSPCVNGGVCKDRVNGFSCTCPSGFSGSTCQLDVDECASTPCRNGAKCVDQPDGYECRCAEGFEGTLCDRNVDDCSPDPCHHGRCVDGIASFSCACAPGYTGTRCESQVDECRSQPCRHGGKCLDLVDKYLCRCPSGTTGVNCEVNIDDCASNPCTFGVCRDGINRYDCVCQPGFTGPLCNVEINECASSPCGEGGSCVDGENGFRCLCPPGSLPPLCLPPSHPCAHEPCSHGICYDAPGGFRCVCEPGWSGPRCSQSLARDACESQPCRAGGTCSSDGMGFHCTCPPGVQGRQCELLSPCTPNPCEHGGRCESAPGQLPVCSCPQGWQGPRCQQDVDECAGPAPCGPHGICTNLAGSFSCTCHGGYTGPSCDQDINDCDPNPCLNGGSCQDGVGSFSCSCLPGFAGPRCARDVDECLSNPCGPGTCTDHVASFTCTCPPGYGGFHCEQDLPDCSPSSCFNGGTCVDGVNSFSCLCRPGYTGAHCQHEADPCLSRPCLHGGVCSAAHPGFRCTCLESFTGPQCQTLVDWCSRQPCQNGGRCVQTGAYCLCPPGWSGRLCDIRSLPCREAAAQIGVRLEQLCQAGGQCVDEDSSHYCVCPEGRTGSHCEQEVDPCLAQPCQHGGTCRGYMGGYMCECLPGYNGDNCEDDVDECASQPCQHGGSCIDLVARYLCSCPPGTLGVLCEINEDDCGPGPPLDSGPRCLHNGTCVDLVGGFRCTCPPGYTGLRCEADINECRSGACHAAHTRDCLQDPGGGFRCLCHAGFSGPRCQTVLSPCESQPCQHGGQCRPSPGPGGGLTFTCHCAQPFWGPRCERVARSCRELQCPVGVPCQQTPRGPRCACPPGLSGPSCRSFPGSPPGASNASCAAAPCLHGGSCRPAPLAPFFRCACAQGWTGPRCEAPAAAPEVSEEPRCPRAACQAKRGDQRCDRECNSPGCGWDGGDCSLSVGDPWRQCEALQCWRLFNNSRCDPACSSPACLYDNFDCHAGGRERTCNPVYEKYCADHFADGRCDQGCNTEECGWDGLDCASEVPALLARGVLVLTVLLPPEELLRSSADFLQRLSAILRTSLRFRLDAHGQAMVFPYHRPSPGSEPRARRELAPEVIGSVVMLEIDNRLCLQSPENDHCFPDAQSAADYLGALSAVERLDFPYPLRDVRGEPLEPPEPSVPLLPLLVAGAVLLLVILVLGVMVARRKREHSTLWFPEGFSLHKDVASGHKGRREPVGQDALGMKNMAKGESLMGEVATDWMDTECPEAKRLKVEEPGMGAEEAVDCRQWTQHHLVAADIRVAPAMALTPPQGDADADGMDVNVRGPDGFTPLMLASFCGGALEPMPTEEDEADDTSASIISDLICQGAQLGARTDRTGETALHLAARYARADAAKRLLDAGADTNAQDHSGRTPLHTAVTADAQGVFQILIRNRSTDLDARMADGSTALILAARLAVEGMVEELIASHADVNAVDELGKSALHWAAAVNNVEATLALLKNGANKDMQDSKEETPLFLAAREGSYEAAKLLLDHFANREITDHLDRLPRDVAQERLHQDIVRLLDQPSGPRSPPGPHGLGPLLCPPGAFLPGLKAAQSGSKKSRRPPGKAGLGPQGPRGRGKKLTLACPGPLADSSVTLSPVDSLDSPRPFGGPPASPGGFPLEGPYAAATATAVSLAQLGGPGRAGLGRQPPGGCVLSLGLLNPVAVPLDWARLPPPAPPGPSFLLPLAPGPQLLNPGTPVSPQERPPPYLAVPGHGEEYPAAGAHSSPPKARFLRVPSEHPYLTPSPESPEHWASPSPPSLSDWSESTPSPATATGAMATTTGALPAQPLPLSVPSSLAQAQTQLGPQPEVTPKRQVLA
- Test Description: small molecules binding NOTCH3 protein – biochemical, 635/667 nm fluorescence, primary screen (AID 1096)
- Assay Conditions: small-molecule microarray, 635 nm fluorescence, higher = more signal
No unit in the answer, only the number.

COCCCNC(=O)[C@@H]1c2ccccc2C(=O)N(C(C)C)[C@H]1c1ccc(CO)cc1	-0.406

Which composite z-score value is on record for COC(=O)C1(CC(C)C)C=C2C(=C(c3ccccc3)C(=O)C2C)CN1 (stereo not drawn) ?
0.141

Which composite z-score value is on record for CCOC(=O)C[C@H]1[C@H](OC(=O)c2ccc(-c3ccccc3)cc2)[C@@H](NC(=O)CC(C)C)c2cc(OCCCO)ccc2N1C(=O)c1ccc2ccccc2n1 ?
0.753

###

Here, each record is paired with measured z-score data.
- Test Description: growth of efflux-deficient E. coli DRC39 – strain DRC39, OD650, 24 h, E. coli filamentation inducers, primary screen (AID 1178);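 further: growth measured as culture turbidity by optical density at 650 nm; test concentration not given here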
- Assay Conditions: E. coli DRC39 acrAB, higher = more signal, called active from +8 up or from −8 down
No unit in the answer, only the number.

O[C@@H](Cc1ccccc1)[C@@H](/C=C/C1CC1)N(CC#Cc1ccccc1)Cc1ccccc1Br	-0.419
NC(=O)[C@@]1(Cc2ccccc2)COC(c2ccc(OCCCO)cc2)=N1	2.1
C=C[C@@H](CO)N(Cc1ccc(OC)cc1)S(=O)(=O)c1ccc(Br)cc1	1.66
COC(=O)[C@@]1(Cc2ccccc2)[C@H]2c3cc(C(=O)N(C)C)n(Cc4ccc(C)o4)c3C[C@H]2CN1C(=O)c1ccccc1	-0.513
CC(C)C(CO)N1C(=O)[C@@H]2C3C(=O)OCCC/C=C\[C@H]3OC23C=CCN(Cn2nnc4ccccc42)C(=O)[C@@H]13 (some centres not stated)	0.246

Which z-score value is on record for CC1CC/C=C\[C@H]2OC34C=CCN(c5ccc(Cl)cc5)C(=O)[C@H]3N(C(C)CO)C(=O)[C@]4(C)C2C(=O)O1 (some centres not stated) ?
1.31

Which z-score value is on record for COc1cc2c(cc1O)C(c1cccs1)N(Cc1cc3c(cc1Br)OCO3)CC2 (configuration not stated) ?
-0.284

Which z-score value is on record for COC(=O)C1=CC(CCCO)=CC(c2cccs2)N(C)C=C1C(=O)OC (configuration not stated) ?
-0.187

Which z-score value is on record for O=C1O[C@@H](c2ccccc2)[C@@H](c2ccccc2)N2[C@@H](c3ccc(O)cc3)[C@]3(C(=O)Nc4ccc(C#CCCO)cc43)[C@@H](C(=O)N3CCN(c4ncccn4)CC3)[C@H]12 ?
1.08
